B1: PLAGL1 (parent)
chain: DPNKMAFGCEECGKKYNTMLGYKR

# Variants of: B1
# measurement_description: protein stability index of a GFP-peptide fusion (GPS, HEK-293T) (PSI 1-6); higher = more stable;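 note: lentivirally expressed fusions sorted by FACS into six bins by GFP to DsRed ratio, PSI derived from sequencing read proportions per bin multiplied by bin number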
# test_conditions: c terminus: a fixed tail appended
Output schema: class label derived from protein stability index. Mapping: c1 (below 2), c2 (2 to below 3), c3 (3 or more)

mutant_code=Y22H label_class=c2
mutant_code=M5D label_class=c3
mutant_code=T18H label_class=c2
mutant_code=R24S label_class=c3
mutant_code=G21F label_class=c1
mutant_code=G13E label_class=c2
mutant_code=T18P label_class=c2
mutant_code=M5R label_class=c2
mutant_code=E11R label_class=c1
mutant_code=Y16A label_class=c2
